- system tested: Cannabinoid receptor 2 (Homo sapiens)
- experiment description: Antagonist activity against CB2R (unknown origin) CHO cells stably expressing Galpha16 assessed as inhibition of CP55940-induced increase in intracellular calcium level pre-treated 10 mins before CP55940 stimulation by microplate reader based assay relative to […]
- Assay type: functional, cell-based
experimental endpoint: Emax

>  <structure notation>
CCCCCN1C(=O)/C(=C/NC2CCCCC2)C(=O)c2ccc(C)cc21

>  <recorded result>
96.3%

$$$$
>  <structure notation>
CCCCCN1C(=O)/C(=C/NC2CCCCC2)C(=O)c2ccc(OC)cc21

>  <recorded result>
97.4%

$$$$
>  <structure notation>
CCCCCN1C(=O)/C(=C/NC2CCCCC2)C(=O)c2cc(Br)ccc21

>  <recorded result>
96.8%

$$$$
>  <structure notation>
CCCCCN1C(=O)/C(=C/NC2CCCCC2)C(=O)c2cc(OC)ccc21

>  <recorded result>
98.3%

$$$$
>  <structure notation>
CCCCCN1C(=O)/C(=C/NC2CCCCC2)C(=O)c2cc(OC)cc(C)c21

>  <recorded result>
106%

$$$$
>  <structure notation>
Cc1c(C(=O)NN2CCCCC2)nn(-c2ccc(Cl)cc2Cl)c1-c1ccc(Cl)cc1

>  <recorded result>
100%

$$$$
>  <structure notation>
CCCCCN1C(=O)/C(=C/NC23CC4CC(CC(C4)C2)C3)C(=O)c2cc(Cl)ccc21

>  <recorded result>
100%

$$$$
>  <structure notation>
CCCCCN1C(=O)/C(=C/NC2CCCCC2)C(=O)c2cc(Cl)ccc21

>  <recorded result>
102%

$$$$
>  <structure notation>
CCCCCN1C(=O)/C(=C/NC23CC4CC(CC(C4)C2)C3)C(=O)c2cc(OC)cc(C)c21

>  <recorded result>
102%

$$$$
>  <structure notation>
CCCCN1C(=O)/C(=C/NC2CCCCC2)C(=O)c2cc(OC)ccc21

>  <recorded result>
99.7%

$$$$

----------
- system tested: Cannabinoid receptor 2 (Homo sapiens)
- experiment description: Agonist activity at CB2R (unknown origin) CHO cells stably expressing Galpha16 assessed as increase in intracellular calcium level by microplate reader based assay relative to CP55940
- Type: functional, cell-based
Quick reference: Emax of the listed items.

>  <compound>
CCCCN1C(=O)/C(=C/NC2CC2)C(=O)c2cccc(C)c21

>  <unit descriptor>
%

>  <Emax>
81.8

$$$$
>  <compound>
O=C(NCC1CCOCC1)c1cnc(Nc2ccc(Cl)cc2Cl)nc1C(F)(F)F [GW842166X]

>  <unit descriptor>
%

>  <Emax>
91.6

$$$$
>  <compound>
CCCCCN1C(=O)/C(=C/NC2CCCCC2)C(=O)c2cccc(C)c21

>  <unit descriptor>
%

>  <Emax>
70.3

$$$$
>  <compound>
CCCCN1C(=O)/C(=C/NCC(C)C)C(=O)c2cccc(C)c21

>  <unit descriptor>
%

>  <Emax>
99

$$$$
>  <compound>
C=CCCN1C(=O)/C(=C/NC2CCCCC2)C(=O)c2cccc(C)c21

>  <unit descriptor>
%

>  <Emax>
135

$$$$
>  <compound>
CCCN1C(=O)/C(=C/NC(C)(C)C)C(=O)c2cccc(C)c21

>  <unit descriptor>
%

>  <Emax>
126

$$$$
>  <compound>
CCCCN1C(=O)/C(=C/NC(CC)CC)C(=O)c2cccc(C)c21

>  <unit descriptor>
%

>  <Emax>
137

$$$$
>  <compound>
CCCCN1C(=O)/C(=C/NN2CCOCC2)C(=O)c2cccc(C)c21

>  <unit descriptor>
%

>  <Emax>
78.7

$$$$
>  <compound>
CCCCN1C(=O)/C(=C/NC(C)(C)CO)C(=O)c2cccc(C)c21

>  <unit descriptor>
%

>  <Emax>
127

$$$$
>  <compound>
CCCCN1C(=O)/C(=C/NC(C)CCC)C(=O)c2cccc(C)c21 (stereo not given)

>  <unit descriptor>
%

>  <Emax>
53.6

$$$$

----------
- system tested: Cannabinoid receptor 2 (Homo sapiens, UniProt P34972)
- Sequence (P34972 whole entry): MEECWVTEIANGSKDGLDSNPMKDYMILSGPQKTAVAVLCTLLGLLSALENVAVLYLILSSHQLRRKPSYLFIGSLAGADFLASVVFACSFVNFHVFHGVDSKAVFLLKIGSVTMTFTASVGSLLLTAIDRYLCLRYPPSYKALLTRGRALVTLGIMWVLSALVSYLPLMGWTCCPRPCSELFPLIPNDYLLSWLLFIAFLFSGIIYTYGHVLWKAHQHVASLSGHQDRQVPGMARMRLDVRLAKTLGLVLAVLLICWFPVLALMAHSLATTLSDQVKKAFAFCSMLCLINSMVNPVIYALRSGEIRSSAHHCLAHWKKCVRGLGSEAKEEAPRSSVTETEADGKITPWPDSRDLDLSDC
- experiment description: Antagonist activity against CB2R (unknown origin) CHO cells stably expressing Galpha16 assessed as inhibition of CP55940-induced increase in intracellular calcium level pre-treated 10 mins before CP55940 stimulation by microplate reader based assay
pIC50: −log10 of the molar value.
Quick reference: pIC50 of the listed items.

>  <structure notation>
CCCCCN1C(=O)/C(=C/NC23CC4CC(CC(C4)C2)C3)C(=O)c2cc(Cl)ccc21

>  <system tested>
Cannabinoid receptor 2 (Homo sapiens, UniProt P34972)

>  <reading qualifier>
=

>  <pIC50>
6.02

$$$$
>  <structure notation>
CCCCCN1C(=O)/C(=C/NC2CCCCC2)C(=O)c2cc(OC)ccc21

>  <system tested>
Cannabinoid receptor 2 (Homo sapiens, UniProt P34972)

>  <reading qualifier>
=

>  <pIC50>
5.78

$$$$
>  <structure notation>
CCCCCN1C(=O)/C(=C/NC2CCCCC2)C(=O)c2ccc(C)cc21

>  <system tested>
Cannabinoid receptor 2 (Homo sapiens, UniProt P34972)

>  <reading qualifier>
=

>  <pIC50>
8.04

$$$$
>  <structure notation>
CCCCCN1C(=O)/C(=C/NC2CCCCC2)C(=O)c2cc(C(C)(C)C)ccc21

>  <system tested>
Cannabinoid receptor 2 (Homo sapiens, UniProt P34972)

>  <reading qualifier>
<

>  <pIC50>
5.00

$$$$
>  <structure notation>
CCCCCN1C(=O)/C(=C/NC2CCCCC2)C(=O)c2cc(C)ccc21

>  <system tested>
Cannabinoid receptor 2 (Homo sapiens, UniProt P34972)

>  <reading qualifier>
<

>  <pIC50>
5.00

$$$$

----------
- system tested: Cannabinoid receptor 2 (Homo sapiens, UniProt P34972)
- experiment description: Agonist activity at CB2R (unknown origin) CHO cells stably expressing Galpha16 assessed as increase in intracellular calcium level by microplate reader based assay
- Assay type: functional, cell-based
- applied conditions: read-out: pEC50 (converted)
Quick reference: EC50 of the listed items.

>  <compound>
CCCCN1C(=O)/C(=C/NC(CC)CC)C(=O)c2cccc(C)c21

>  <unit descriptor>
nM

>  <EC50>
112

$$$$
>  <compound>
CCCCN1C(=O)/C(=C/NC(C)(C)CC)C(=O)c2cccc(C)c21

>  <unit descriptor>
nM

>  <EC50>
75

$$$$
>  <compound>
CCCCN1C(=O)/C(=C/NC(C)(C)CO)C(=O)c2cccc(C)c21

>  <unit descriptor>
nM

>  <EC50>
41

$$$$
>  <compound>
CCCCN1C(=O)/C(=C/NC(C)C(C)C)C(=O)c2cccc(C)c21 (configuration not stated)

>  <unit descriptor>
nM

>  <EC50>
83

$$$$
>  <compound>
CCCCN1C(=O)/C(=C/NCC(C)C)C(=O)c2cccc(C)c21

>  <unit descriptor>
nM

>  <EC50>
44

$$$$
>  <compound>
CCCCN1C(=O)/C(=C/NC2CCCCC2)C(=O)c2cccc(CC)c21

>  <unit descriptor>
nM

>  <EC50>
800

$$$$
>  <compound>
CCCCN/C=C1\C(=O)c2cccc(C)c2N(CCCC)C1=O

>  <unit descriptor>
nM

>  <EC50>
91

$$$$

----------
- system tested: Cannabinoid receptor 2 (Homo sapiens)
- experiment description: Antagonist activity against CB2R (unknown origin) CHO cells stably expressing Galpha16 assessed as inhibition of CP55940-induced increase in intracellular calcium level pre-treated 10 mins before CP55940 stimulation by microplate reader based assay relative to […]
- Assay type: functional, cell-based
experimental endpoint: Emax

>  <structure notation>
CCCCCN1C(=O)/C(=C/NC2CCCCC2)C(=O)c2cc(Cl)cc(C)c21

>  <experimental endpoint>
Emax

>  <recorded result>
95%

$$$$
>  <structure notation>
CCCCCN1C(=O)/C(=C/NC23CC4CC(CC(C4)C2)C3)C(=O)c2cc(OC)ccc21

>  <experimental endpoint>
Emax

>  <recorded result>
106%

$$$$
>  <structure notation>
CCCCOc1c(OC)ccc2cc(C(=O)NCCc3ccc(N)cc3)c(=O)[nH]c12

>  <experimental endpoint>
Emax

>  <recorded result>
102%

$$$$

----------
Quick reference: pIC50 of the listed items.
- system tested: UniProt P34972
- experiment description: Antagonist activity against CB2R (unknown origin) CHO cells stably expressing Galpha16 assessed as inhibition of CP55940-induced increase in intracellular calcium level pre-treated 10 mins before CP55940 stimulation by microplate reader based assay
pIC50: −log10 of the molar value.
experimental endpoint: pIC50

>  <structure notation>
CCCCCN1C(=O)/C(=C/NC2CCCCC2)C(=O)c2cc(Cl)ccc21

>  <experimental endpoint>
pIC50

>  <recorded result>
5.82

$$$$
>  <structure notation>
CCCCN1C(=O)/C(=C/NC2CCCCC2)C(=O)c2cc(OC)ccc21

>  <experimental endpoint>
pIC50

>  <recorded result>
5.38

$$$$
>  <structure notation>
CCCCCN1C(=O)/C(=C/NC23CC4CC(CC(C4)C2)C3)C(=O)c2cc(OC)ccc21

>  <experimental endpoint>
pIC50

>  <recorded result>
7.09

$$$$
